Below, each of the compounds is paired with its reported IC50 value.
- Experimental system: UniProt O15151
- Protocol notes: Competitive fluorescence polarization assay for MDMX
- Type: binding
- Run conditions: competitive FP assay, read-out: IC50 (MDMX)
Where a SMILES comes first, the peptide text is derived from it. Bridges are numbered along the chain shown (N, C = ends). [ ]: non-standard residue; d: D form. R8 = C=CCCCCCC[C@@](C)(N)C(=O)O; Cba = N[C@@H](CC1CCC1)C(=O)O; S5 = C=CCCC[C@](C)(N)C(=O)O; Nle = CCCC[C@H](N)C(=O)O

Find the recorded IC50 belonging to CC(=O)N[C@@H](CC(C)C)C(=O)N[C@H](C(=O)N[C@@H](Cc1ccccc1)C(=O)N[C@]1(C)CCCCCCC=CCCC[C@@](C)(C(=O)N[C@@H](CO)C(=O)N[C@@H](CC(C)C)C(=O)N[C@@H](C)C(N)=O)NC(=O)[C@H](CC(C)C)NC(=O)[C@H](CCC(N)=O)NC(=O)[C@H](C)NC(=O)[C@H](Cc2c[nH]c3ccccc23)NC(=O)[C@H](Cc2ccc(O)cc2)NC(=O)[C@H](C)NC1=O)[C@@H](C)O (single isomer, unassigned) and report it.
100 to 1000 nM

We next turn to a different compound, shown below.
Find the recorded IC50 belonging to CCCC[C@H](NC(=O)[C@H](C)NC(=O)[C@H](C)NC(=O)[C@]1(C)CCCC=CCCCCCC[C@@](C)(NC(=O)[C@H](Cc2ccccc2)NC(=O)[C@@H](NC(=O)[C@H](CC(C)C)NC(C)=O)[C@@H](C)O)C(=O)N[C@@H](CCC(=O)O)C(=O)N[C@@H](Cc2ccc(O)cc2)C(=O)N[C@@H](Cc2c[nH]c3ccccc23)C(=O)N[C@@H](C)C(=O)N[C@@H](CCC(N)=O)C(=O)N[C@@H](CC2CCC2)C(=O)N1)C(=O)N[C@@H](C)C(=O)N[C@@H](C)C(N)=O [compound 380] (Ac-LTF[R8]EYWAQ[Cba][S5]AA[Nle]AA-NH2; staple 4-11) and report it.
10 to 100 nM

---

- Tested on: SJSA-1 cells
- Protocol notes: Cell lysis by peptidomimetic macrocycles (LDH release)
- Assay type: cell-based
- Run conditions: 6.25 uM, 1 h at 37C
Where a SMILES comes first, the peptide text is derived from it. Bridges are numbered along the chain shown (N, C = ends). [ ]: non-standard residue; d: D form. R8 = C=CCCCCCC[C@@](C)(N)C(=O)O; S5 = C=CCCC[C@](C)(N)C(=O)O
Recorded metric: 6.25 uM % Lysed cells (1 h LDH)
Number plus unit, in that order.

// fetch SJSA-1 cells 6.25 uM % Lysed cells (1 h LDH) for CC(=O)N[C@@H](CCC(=O)O)C(=O)N[C@H](C(=O)N[C@@H](Cc1ccccc1)C(=O)N[C@]1(C)CCCCCCC=CCCC[C@@](C)(C(=O)N[C@@H](CO)C(=O)N[C@@H](C)C(=O)N[C@@H](C)C(N)=O)NC(=O)[C@H](CC(C)C)NC(=O)[C@H](CCC(N)=O)NC(=O)[C@H](C)NC(=O)[C@H](Cc2c[nH]c3ccccc23)NC(=O)[C@H](Cc2ccc(O)cc2)NC(=O)[C@H](CCC(=O)O)NC1=O)[C@@H](C)O [compound 161] (Ac-ETF[R8]EYWAQL[S5]SAA-NH2; staple 4-11)
1%

---

- Test system: SJSA-1 cells
- Protocol notes: Cell lysis by peptidomimetic macrocycles (LDH release)
- Type: cell-based
- Run conditions: 6.25 uM, 1 h at 37C
Where a SMILES comes first, the peptide text is derived from it. Bridges are numbered along the chain shown (N, C = ends). [ ]: non-standard residue; d: D form. Phe(3,4-F2) = N[C@@H](Cc1ccc(F)c(F)c1)C(=O)O; R8 = C=CCCCCCC[C@@](C)(N)C(=O)O; Cba = N[C@@H](CC1CCC1)C(=O)O; S5 = C=CCCC[C@](C)(N)C(=O)O; Nle = CCCC[C@H](N)C(=O)O
Below, each of the molecules is paired with its reported 6.25 uM % Lysed cells (1 h LDH) value.
Number plus unit, in that order.

Example cases with answers are listed next.
Find the recorded 6.25 uM % Lysed cells (1 h LDH) belonging to CCCC[C@H](NC(=O)[C@H](C)NC(=O)[C@H](CO)NC(=O)[C@]1(C)CCCC=CCCCCCC[C@@](C)(NC(=O)[C@H](Cc2ccccc2)NC(=O)[C@@H](NC(=O)[C@H](CC(C)C)NC(C)=O)[C@@H](C)O)C(=O)N[C@@H](CCC(=O)O)C(=O)N[C@@H](Cc2ccc(O)cc2)C(=O)N[C@@H](Cc2c[nH]c3ccccc23)C(=O)N[C@@H](CO)C(=O)N[C@@H](CCC(N)=O)C(=O)N[C@@H](CC2CCC2)C(=O)N1)C(=O)N[C@@H](C)C(N)=O [compound 245] (Ac-LTF[R8]EYWSQ[Cba][S5]SA[Nle]A-NH2; staple 4-11) and report it.
1%

Find the recorded 6.25 uM % Lysed cells (1 h LDH) belonging to CC(=O)N[C@@H](CC(C)C)C(=O)N[C@H](C(=O)N[C@@H](Cc1ccccc1)C(=O)N[C@]1(C)CCCCCCC=CCCC[C@@](C)(C(=O)N[C@@H](CO)C(=O)N[C@@H](C)C(=O)N[C@@H](C)C(N)=O)NC(=O)[C@H](CC2CCCCC2)NC(=O)[C@H](CCC(N)=O)NC(=O)[C@H](C)NC(=O)[C@H](Cc2c[nH]c3ccccc23)NC(=O)[C@H](Cc2ccc(O)cc2)NC(=O)[C@H](CCC(=O)O)NC1=O)[C@@H](C)O (single isomer, unassigned) and report it.
0%

Find the recorded 6.25 uM % Lysed cells (1 h LDH) belonging to CCCC[C@H](NC(=O)[C@H](C)NC(=O)[C@H](C)NC(=O)[C@]1(C)CCCC=CCCCCCC[C@@](C)(NC(=O)[C@H](Cc2ccccc2)NC(=O)[C@@H](NC(=O)[C@H](CC(C)C)NC(C)=O)[C@@H](C)O)C(=O)N[C@@H](C)C(=O)N[C@@H](Cc2ccc(O)cc2)C(=O)N[C@@H](Cc2c[nH]c3ccccc23)C(=O)N[C@@H](C)C(=O)N[C@@H](C)C(=O)N[C@@H](CC(C)C)C(=O)N1)C(=O)N[C@@H](C(N)=O)C(C)C (single isomer, unassigned) and report it.
0%

We next turn to a different molecule, shown below.
Find the recorded 6.25 uM % Lysed cells (1 h LDH) belonging to CCCC[C@H](NC(=O)[C@H](C)NC(=O)[C@H](CO)NC(=O)[C@]1(C)CCCC=CCCCCCC[C@@](C)(NC(=O)[C@H](Cc2ccc(F)c(F)c2)NC(=O)[C@@H](NC(=O)[C@H](CC(C)C)NC(C)=O)[C@@H](C)O)C(=O)N[C@@H](CCC(=O)O)C(=O)N[C@@H](Cc2ccc(O)cc2)C(=O)N[C@@H](Cc2c[nH]c3ccccc23)C(=O)N[C@@H](C)C(=O)N[C@@H](CCC(N)=O)C(=O)N[C@@H](CC2CCC2)C(=O)N1)C(=O)N[C@@H](C)C(N)=O [compound 243] (Ac-LT[Phe(3,4-F2)][R8]EYWAQ[Cba][S5]SA[Nle]A-NH2; staple 4-11) and report it.
4%

---

- Experimental system: MDMX (Homo sapiens)
- Sequence (O15151 1-125): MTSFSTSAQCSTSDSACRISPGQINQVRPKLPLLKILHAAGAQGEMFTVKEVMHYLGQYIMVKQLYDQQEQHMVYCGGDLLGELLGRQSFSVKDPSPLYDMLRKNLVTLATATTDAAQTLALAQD
- Protocol notes: Competitive fluorescence polarization assay for MDMX
- Assay type: binding
- Run conditions: competitive FP assay, read-out: IC50 (MDMX)
Where a SMILES comes first, the peptide text is derived from it. Bridges are numbered along the chain shown (N, C = ends). [ ]: non-standard residue; d: D form. R8 = C=CCCCCCC[C@@](C)(N)C(=O)O; S5 = C=CCCC[C@](C)(N)C(=O)O
Recorded metric: IC50

Find the recorded IC50 belonging to CC(=O)N[C@@H](CCC(=O)O)C(=O)N[C@H](C(=O)N[C@@H](Cc1ccccc1)C(=O)N[C@]1(C)CCCCCCC=CCCC[C@@](C)(C(=O)N[C@@H](CO)C(=O)N[C@@H](C)C(=O)N[C@@H](C)C(N)=O)NC(=O)[C@H](CC(C)C)NC(=O)[C@H](CCC(N)=O)NC(=O)[C@H](C)NC(=O)[C@H](Cc2c[nH]c3ccccc23)NC(=O)[C@H](Cc2ccc(O)cc2)NC(=O)[C@H](C(C)C)NC1=O)[C@@H](C)O [compound 125] (Ac-ETF[R8]VYWAQL[S5]SAA-NH2; staple 4-11) and report it.
100 to 1000 nM
